- assay_explanation: antimalarial activity against Dd2 strain (AID 2302);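 note: 0% = DMSO untreated growth and 100% = chloroquine plus artemisinin killed control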
- details: P. falciparum Dd2 in RBCs, LDH growth readout, 72 h; at 2 µM; stronger effect = higher value
Label class 1 when growth inhibition is at or above 40%; anything below gets class 0.

Problem: Given the entry COc1ccc(N2CCN(C(CNC(=O)C3CCCCC3)c3ccc4c(c3)OCO4)CC2)cc1 (configuration not stated) , answer whether its growth inhibition meets or surpasses 40%.
Solution: class 1

Problem: Given the entry C[C@@H](Oc1cc(-n2cnc3ccc(OCC4CCN(S(C)(=O)=O)CC4)cc32)sc1C(N)=O)c1ccccc1C(F)(F)F , answer whether its growth inhibition meets or surpasses 40%.
Solution: class 1

Problem: Given the entry CCCCCCCCN1CCN(CCCCCCNc2c3ccccc3nc3ccccc23)CC1 , answer whether its growth inhibition meets or surpasses 40%.
Solution: class 1

Problem: Given the entry COc1ccc(Cn2ncc3c4c(N)nc(N)nc4ccc32)cc1OC , answer whether its growth inhibition meets or surpasses 40%.
Solution: class 1

Problem: Given the entry COc1ccc2nccc([C@@H](O)CN3CCC(NCc4[nH]c5ccccc5c4F)CC3)c2c1 , answer whether its growth inhibition meets or surpasses 40%.
Solution: class 1

Problem: Given the entry CCc1ccc(S(=O)(=O)Nc2ccc(CCN(C)C3CCN(C)CC3)cc2)cc1 , answer whether its growth inhibition meets or surpasses 40%.
Solution: class 0

Problem: Given the entry COc1ccc2nccc(N3CCCN(CCNS(=O)(=O)c4ccc5c(c4)NC(=O)CS5)CC3)c2n1 , answer whether its growth inhibition meets or surpasses 40%.
Solution: class 0

Problem: Given the entry C=C[C@H]1CN(CCCCCCC)CC[C@H]1CC(=O)Nc1cnnc2ccc(OC)cc12 , answer whether its growth inhibition meets or surpasses 40%.
Solution: class 1

Problem: Given the entry COc1cc(F)c2ncc(Cl)c(CCN3CCC(NCc4ccc5c(n4)NC(=O)CO5)CC3)c2c1 , answer whether its growth inhibition meets or surpasses 40%.
Solution: class 0

Problem: Given the entry Clc1ccc(C2CCN(CCCOc3ccc4c(c3)CCNCC4)CC2)cc1 , answer whether its growth inhibition meets or surpasses 40%.
Solution: class 0

Problem: Given the entry CC1CCCN1Cc1ccc(-c2ccc3c(=O)cc(CCc4cccc(F)c4F)n(CC(=O)N(C)Cc4ccc(-c5ccc(C(F)(F)F)cc5)cc4)c3n2)cc1 (configuration not stated) , answer whether its growth inhibition meets or surpasses 40%.
Solution: class 1

Problem: Given the entry Cc1ccc(NC(=O)N2CCC(n3c(-c4ccccc4)nc4cccnc43)CC2)cc1F , answer whether its growth inhibition meets or surpasses 40%.
Solution: class 1

Problem: Given the entry CC(=O)c1ccc2c(c1)[C@H](NC(=O)c1cccc(Cl)c1Cl)[C@@H](CO)C(C)(C)O2 , answer whether its growth inhibition meets or surpasses 40%.
Solution: class 1

Problem: Given the entry O=C(Cc1ccccc1)NC(c1ccccc1)c1ccc2cccnc2c1O (configuration not stated) , answer whether its growth inhibition meets or surpasses 40%.
Solution: class 1

---

- assay_explanation: inhibition of 3D7 malaria parasite growth – strain 3D7 (AID 2306);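 note: 0% = DMSO wells and 100% = chloroquine plus artemisinin control wells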
- details: P. falciparum 3D7 erythrocytic growth, LDH absorbance, 72 h; at 2 µM; stronger effect = higher value
quantity_name: growth inhibition (%)
Respond numerically; units are % and should not be typed.

{"molecule": "Oc1ccc(Nc2nc(NCc3ccccc3)c3ccccc3n2)cc1", "growth inhibition [%]": 101}
{"molecule": "CCCc1cc(OC)c(C[C@H]2c3cc(O)c(Cl)cc3CCN2C)cc1OC", "growth inhibition [%]": 97}
{"molecule": "COc1ccc(-c2cc(C(=O)Nc3ccc(CCCN(C)Cc4ccc(OC)c(OC)c4)cc3)c3ccccc3n2)cc1", "growth inhibition [%]": 92}

Problem: Reported growth inhibition for COc1cc2nc(N(C)C)nc(Nc3ccc4c(cnn4Cc4ccccc4)c3)c2cc1OC : what is it?
Solution: 100

Problem: Reported growth inhibition for CN(C)c1ccc(CN2CCCCC(NC(=O)c3cc(-c4ccccc4F)cs3)C2)cc1 (stereo unspecified) : what is it?
Solution: 100

Problem: Reported growth inhibition for COc1cc(SC)ccc1C(=O)N1CC(C)CC(C)C1 (stereo unspecified) : what is it?
Solution: 98

Problem: Reported growth inhibition for O=C(/C=C/c1ccc(Cl)c(Cl)c1)N1CCC(CCN2CCC(c3nc4ccc(O)cc4[nH]3)CC2)CC1 : what is it?
Solution: 100

Problem: Reported growth inhibition for O=C(Cc1cn(-c2ccccc2)nc1-c1ccc(Cl)cc1)Nc1nccs1 : what is it?
Solution: 88

Problem: Reported growth inhibition for CCN1CCN(CCCNc2ccnc3cc(Cl)ccc23)CC1 : what is it?
Solution: 101

Problem: Reported growth inhibition for Cc1nc2nc(N)nc(N)c2c(C)c1Cc1ccccc1 : what is it?
Solution: 95

---

- system_under_test: Protein kinase 7 (PK7), Plasmodium falciparum 3D7 (PF3D7_0213400)
- assay_explanation: inhibition of Plasmodium PK7 catalytic activity – biochemical, TCAMS antimalarial set, Kinase-Glo luminescence (AID 1159587)
- details: recombinant PfPK7, Kinase-Glo ATP depletion luminescence
Active and inactive are the calls of the source. The rule behind the calls is not given here.
quantity_name: outcome

{"molecule": "c1ccc(CCNCc2ccc(-c3ccc(CNc4ccc5ncccc5c4)cc3)cc2)cc1", "outcome": "inactive"}
{"molecule": "N#Cc1ccc(CN2CCC(Oc3ccc(NC(=O)c4ccsc4)cc3Cl)C2)cc1 (stereo not given)", "outcome": "inactive"}
{"molecule": "COc1ccc(C(=O)Nc2nonc2-c2ccc(OC)c(OC)c2)cc1Cl", "outcome": "inactive"}
{"molecule": "CN(C)Cc1cc2c(O)c(Cc3ccccc3)ccc2o1", "outcome": "inactive"}

Problem: Reported outcome for CS(=O)(=O)CCCNCc1ccc(-c2cc3c(Nc4ccc(OCc5ccccc5)cc4)ncnc3cn2)o1 : what is it?
Solution: inactive

---

- assay_explanation: human hepatoma cell viability loss – ATP luminescence, cytotoxicity control for P. falciparum antimalarial project, primary screen (AID 2303);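 note: 0% = DMSO wells and 100% = digitonin-killed cells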
- details: HepG2 viability, 24-48 h, at 10 µM, stronger effect = higher value
quantity_name: inhibition (%)
Respond numerically; units are % and should not be typed.

{"molecule": "COc1ccc2nccc([C@@H](O)CN3CCC(NCc4ccc5c(c4)NC(=O)CS5)CC3)c2n1", "measured_number": 1}
{"molecule": "Cc1cccc2[nH]c(-c3cccc(-c4ccc(NC(=O)C5CCCO5)cc4)c3)nc12 (centres undefined)", "measured_number": 10}
{"molecule": "CCN(CC)CCN(Cc1ccc(-c2ccc(C(F)(F)F)cc2)cc1)C(=O)Cn1cc(CCCc2cccc(F)c2F)c(=O)c2ccccc21", "measured_number": 13}
{"molecule": "COc1ccc(-c2ccc(Nc3cccc(S(=O)(=O)CCN4CCC(CCN(C)C)CC4)c3)nc2)cn1", "measured_number": 44}
{"molecule": "COc1cccc(OC2CCN(C(=O)c3cc(C(C)(C)C)nn3Cc3ccccc3)CC2)c1", "measured_number": 3}

Problem: Reported inhibition for CC1(C)N=C(N)N=C(N)N1OCCOc1ccc(Cc2ccccc2)cc1 : what is it?
Solution: 62

Problem: Reported inhibition for CCc1cn2c3c(cc(C(=O)N[C@@H](Cc4ccccc4)[C@H](O)CNC4CCOCC4)cc13)N(C(C)C)S(=O)(=O)CC2 : what is it?
Solution: 0

Problem: Reported inhibition for OC(CNc1ccnc(Nc2cccc(Cl)c2)n1)c1cccc(F)c1 (centres undefined) : what is it?
Solution: 16

Problem: Reported inhibition for Cc1nc(N)nc(N)c1OCc1cccc2c1ccc1ccccc12 : what is it?
Solution: 54

---

- assay_explanation: antimalarial activity against Dd2 strain (AID 2302);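 note: 0% = DMSO untreated growth and 100% = chloroquine plus artemisinin killed control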
- details: P. falciparum Dd2 in RBCs, LDH growth readout, 72 h; at 2 µM
Active and inactive are the calls of the source.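 The calls were made as follows: active = growth inhibition above 50% at the single 2 µM test dose, taken to imply half-maximal potency below 2 µM; inactive = the rest.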
Reply using exactly one outcome from t (active), f (inactive)

{"compound": "COc1ccc2nccc([C@@H](O)CN3CCC(NCc4cn5cc(F)ccc5n4)CC3)c2c1", "qualitative_label": "f"}
{"compound": "C=CCOC(=O)N1CCC(CNCc2cccc(-c3cccc(-c4nc5ccc(F)cc5[nH]4)c3)c2)C1 (centres undefined)", "qualitative_label": "f"}
{"compound": "COc1ccc2c(c1)CCCC2NCCCCNC(=O)c1ccc(NC(=O)c2ccc(Cl)cc2)cc1 (centres undefined)", "qualitative_label": "f"}

--- query ---
Problem: Outcome logged for COc1ccc(-c2cccc(NC(=O)c3cccc(C#N)c3)c2)cc1CNC(C)C in this assay:
Solution: t

---

- system_under_test: Calcium-dependent protein kinase 1 (Plasmodium falciparum (isolate 3D7))
- assay_explanation: PfCDPK1 kinase inhibitors, biochemical, TCAMS library (AID 1159585);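 note: inhibitors leave more ATP so luminescence rises with inhibition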
- details: recombinant PfCDPK1, Kinase-Glo ATP depletion luminescence
Measured potencies and affinities stand elsewhere. The source made the active and inactive calls. No cut-off is given here; in the data, nearly all actives have IC50 up to about 0.98 µM.
quantity_name: outcome

{"compound": "CC(C)N(Cc1cnc(N)c(C#N)n1)c1ccc(Cl)c(Cl)c1", "system_under_test": "Calcium-dependent protein kinase 1 (Plasmodium falciparum (isolate 3D7))", "result": "inactive"}
{"compound": "Fc1ccccc1CNc1ncc(-c2ccsc2)c(-c2nccs2)n1", "system_under_test": "Calcium-dependent protein kinase 1 (Plasmodium falciparum (isolate 3D7))", "result": "inactive"}
{"compound": "COCCCNc1sc(S(=O)(=O)c2ccccc2)nc1S(=O)(=O)c1ccc(Cl)cc1", "system_under_test": "Calcium-dependent protein kinase 1 (Plasmodium falciparum (isolate 3D7))", "result": "inactive"}
{"compound": "N#Cc1cccc(-c2cccc(C(=O)NC3CCC(CCN4CCc5ccc(C#N)cc5CC4)CC3)c2)c1 (stereo not given)", "system_under_test": "Calcium-dependent protein kinase 1 (Plasmodium falciparum (isolate 3D7))", "result": "inactive"}
{"compound": "CCN1CCN(c2cc(C)c3cc(NC(=O)c4cc(OC)cc(OC)c4)ccc3n2)CC1", "system_under_test": "Calcium-dependent protein kinase 1 (Plasmodium falciparum (isolate 3D7))", "result": "inactive"}

Problem: Reported outcome for N#Cc1ccc(N(CCOC(=O)c2ccccc2)Cc2ccccc2C(F)(F)F)cc1C(F)(F)F : what is it?
Solution: inactive

Problem: Reported outcome for COc1ccc(C(=O)Nc2cc(Cl)c3c(c2)C2CCCN2CC3)cc1C(F)(F)F (stereo not given) : what is it?
Solution: inactive

Problem: Reported outcome for Clc1ccc2nnc(-c3c(Cl)cccc3Cl)n2n1 : what is it?
Solution: inactive
